# Assay summary: xn = mol fraction of the nth substance listed
# Particulars: 303.15 K; 100 kPa; Liquid; Vibrating tube method; x1 = 0.1
Observation type: mass density (kg/m3)
Reply numerically in kg/m3, unit not repeated.

Worked cases, answers included:
CN1CCC[C@H]1c1cccnc1 [(-)-3-(N-methylpyrrolidino)pyridine] + CC(O)CO
1027.18
CN1CCC[C@H]1c1cccnc1 [(-)-3-(N-methylpyrrolidino)pyridine] + CCCCO
837.185
CN1CCC[C@H]1c1cccnc1 [(-)-3-(N-methylpyrrolidino)pyridine] + CCC(C)O
833.532

# ---- query compound ----
[ask] Look up mass density: CN1CCC[C@H]1c1cccnc1 [(-)-3-(N-methylpyrrolidino)pyridine] + OCCCO
[reply] 1042.55

====

# Assay summary: refractive index (Na D-line) (dimensionless)
# Particulars: 313.15 K; 100 kPa; Liquid; Standard Abbe refractometry
Observation type: refractive index
Please respond with just the number, no unit label.

CN1CCC[C@H]1c1cccnc1 [(-)-3-(N-methylpyrrolidino)pyridine]
1.5179

[ask] Fill in the blank: the reported refractive index of CCC(C)O (stereo not given) is ____.
[reply] 1.38803

[ask] Also, CCCCO please.
[reply] 1.39102

[ask] Now try OCCCO .
[reply] 1.43382

[ask] Subsequent entry: CC(O)CO (stereo not given)
[reply] 1.42601

====

# Assay summary: xn = mol fraction of the nth substance listed
# Particulars: 313.15 K; 100 kPa; Liquid; Vibrating tube method; x1 = 0.1
Observation type: mass density (kg/m3)
Hi! Could you send only the number? It should be in kg/m3, unit omitted.

See these solved cases before continuing.
CN1CCC[C@H]1c1cccnc1 [(-)-3-(N-methylpyrrolidino)pyridine] + CC(O)CO
1019.3
CN1CCC[C@H]1c1cccnc1 [(-)-3-(N-methylpyrrolidino)pyridine] + CCC(C)O
824.949

[ask] What value of measured mass density is listed for CN1CCC[C@H]1c1cccnc1 [(-)-3-(N-methylpyrrolidino)pyridine] + OCCCO ?
[reply] 1035.71

[ask] Next up: CN1CCC[C@H]1c1cccnc1 [(-)-3-(N-methylpyrrolidino)pyridine] + CCCCO
[reply] 829.249

====

Entries and their measured refractive index follow.
# Assay summary: refractive index (Na D-line) (dimensionless)
# Particulars: 303.15 K; 100 kPa; Liquid; Standard Abbe refractometry
I only need the number, thanks.

[ask] refractive index lookup needed for CCC(C)O (stereo not given) , thanks.
[reply] 1.39274

[ask] // query: OCCCO
[reply] 1.43648

[ask] Queued: CC(O)CO (stereo not given)
[reply] 1.42941

[ask] Follow-up item: CN1CCC[C@H]1c1cccnc1 [(-)-3-(N-methylpyrrolidino)pyridine]
[reply] 1.52214

[ask] Then this compound: CCCCO
[reply] 1.39517

====

Quick reference: viscosity of the listed items.
# Assay summary: xn = mol fraction of the nth substance listed
# Particulars: 298.15 K; 100 kPa; Liquid; Concentric cylinders viscometry; x1 = 0.1
Field: numeric (mPa·s). Do not append units.

Solved cases below.
CN1CCC[C@H]1c1cccnc1 [(-)-3-(N-methylpyrrolidino)pyridine] + CCCCO
2.692
CN1CCC[C@H]1c1cccnc1 [(-)-3-(N-methylpyrrolidino)pyridine] + OCCCO
48.97
CN1CCC[C@H]1c1cccnc1 [(-)-3-(N-methylpyrrolidino)pyridine] + CC(O)CO
43.28

# input for lookup
[ask] // viscosity lookup, key: CN1CCC[C@H]1c1cccnc1 [(-)-3-(N-methylpyrrolidino)pyridine] + CCC(C)O
[reply] 2.96

====

# Particulars: 293.15 K; 100 kPa; Liquid; Concentric cylinders viscometry
So basically: viscosity at 5 mPa·s or higher? That is 1.0. Lower than 5 mPa·s? That is 0.0.

Solved entries:
CCCCO
0.0
CN1CCC[C@H]1c1cccnc1 [(-)-3-(N-methylpyrrolidino)pyridine]
0.0
CC(O)CO (stereo not given)
1.0

[ask] Hi team, for CCC(C)O (stereo not given) , is the recorded viscosity at or above 5 mPa·s?
[reply] 0.0

[ask] And for OCCCO ?
[reply] 1.0

====

Form field: mass density (one value per entry).
# Assay summary: xn = mol fraction of the nth substance listed
# Particulars: 323.15 K; 100 kPa; Liquid; Vibrating tube method; x1 = 0.1
Write the value in kg/m3 as a bare number.

CN1CCC[C@H]1c1cccnc1 [(-)-3-(N-methylpyrrolidino)pyridine] + CCC(C)O
816.09
CN1CCC[C@H]1c1cccnc1 [(-)-3-(N-methylpyrrolidino)pyridine] + OCCCO
1028.82

[ask] So what does the record say about mass density for CN1CCC[C@H]1c1cccnc1 [(-)-3-(N-methylpyrrolidino)pyridine] + CC(O)CO ?
[reply] 1011.25

[ask] Now try CN1CCC[C@H]1c1cccnc1 [(-)-3-(N-methylpyrrolidino)pyridine] + CCCCO .
[reply] 821.198

====

# Particulars: 318.15 K; 100 kPa; Liquid; Concentric cylinders viscometry
The following compounds are listed with their measured log10 viscosity values.
Hi team, quick reminder: these entries are log10 of viscosity (mPa·s).

Solved cases (4 shown):
OCCCO [propan-1,3-diol]
1.26
CC(O)CO (stereo not given) [1,2-propanediol]
1.20
CCCCO [butan-1-ol]
0.20
CCC(C)O (stereo not given) [butan-2-ol]
0.19

[ask] Sample CN1CCC[C@H]1c1cccnc1 [(-)-3-(N-methylpyrrolidino)pyridine] — what was its log10 viscosity?
[reply] 0.38

====

# Assay summary: xn = mol fraction of the nth substance listed
# Particulars: 293.15 K; 100 kPa; Liquid; Concentric cylinders viscometry; x1 = 0.1
Observation type: viscosity (mPa·s)
Report the figure in mPa·s without appending any unit label.

CN1CCC[C@H]1c1cccnc1 [(-)-3-(N-methylpyrrolidino)pyridine] + CCC(C)O
3.496
CN1CCC[C@H]1c1cccnc1 [(-)-3-(N-methylpyrrolidino)pyridine] + OCCCO
63.86
CN1CCC[C@H]1c1cccnc1 [(-)-3-(N-methylpyrrolidino)pyridine] + CC(O)CO
59.35

[ask] Requested read-out: viscosity. Entry: CN1CCC[C@H]1c1cccnc1 [(-)-3-(N-methylpyrrolidino)pyridine] + CCCCO
[reply] 3.049

====

# Assay summary: xn = mol fraction of the nth substance listed
# Particulars: 303.15 K; 100 kPa; Liquid; Concentric cylinders viscometry; x1 = 0.5
Observation type: viscosity (mPa·s)
Numbers only; they are read as mPa·s.

Some solved entries appear below for comparison.
CN1CCC[C@H]1c1cccnc1 [(-)-3-(N-methylpyrrolidino)pyridine] + OCCCO
19.64
CN1CCC[C@H]1c1cccnc1 [(-)-3-(N-methylpyrrolidino)pyridine] + CCCCO
2.931
CN1CCC[C@H]1c1cccnc1 [(-)-3-(N-methylpyrrolidino)pyridine] + CCC(C)O
3.08

Let us move to another entry and its viscosity.
[ask] Form field: reported viscosity of CN1CCC[C@H]1c1cccnc1 [(-)-3-(N-methylpyrrolidino)pyridine] + CC(O)CO
[reply] 14.99

====

# Assay summary: refractive index (Na D-line) (dimensionless); xn = mol fraction of the nth substance listed
# Particulars: 308.15 K; 100 kPa; Liquid; Standard Abbe refractometry; x1 = 0.5
± gives the expanded uncertainty stated by the source.
Observation type: refractive index

Reference set (3 entries):
CN1CCC[C@H]1c1cccnc1 [(-)-3-(N-methylpyrrolidino)pyridine] + CCC(C)O
1.4742 ± 0.00038
CN1CCC[C@H]1c1cccnc1 [(-)-3-(N-methylpyrrolidino)pyridine] + CCCCO
1.4763 ± 0.00038
CN1CCC[C@H]1c1cccnc1 [(-)-3-(N-methylpyrrolidino)pyridine] + CC(O)CO
1.49301 ± 0.00038

Pending compound:
[ask] Given the compound CN1CCC[C@H]1c1cccnc1 [(-)-3-(N-methylpyrrolidino)pyridine] + OCCCO , what is its reported refractive index?
[reply] 1.49739 ± 0.00046

====

# Assay summary: refractive index (Na D-line) (dimensionless); xn = mol fraction of the nth substance listed
# Particulars: 318.15 K; 100 kPa; Liquid; Standard Abbe refractometry; x1 = 0.5
Observation type: refractive index
Answer with a number only.

Check out these entries, answers already filled in.
CN1CCC[C@H]1c1cccnc1 [(-)-3-(N-methylpyrrolidino)pyridine] + CCC(C)O
1.46971
CN1CCC[C@H]1c1cccnc1 [(-)-3-(N-methylpyrrolidino)pyridine] + CCCCO
1.47184
CN1CCC[C@H]1c1cccnc1 [(-)-3-(N-methylpyrrolidino)pyridine] + OCCCO
1.49341

[ask] Report refractive index for CN1CCC[C@H]1c1cccnc1 [(-)-3-(N-methylpyrrolidino)pyridine] + CC(O)CO please.
[reply] 1.48871

====

# Assay summary: refractive index (Na D-line) (dimensionless); xn = mol fraction of the nth substance listed
# Particulars: 293.15 K; 100 kPa; Liquid; Standard Abbe refractometry; x1 = 0.5
Recorded refractive index for the following compounds
Provide a numeric answer; units are not to be included.

Record excerpt, results attached:
CN1CCC[C@H]1c1cccnc1 [(-)-3-(N-methylpyrrolidino)pyridine] + CCCCO
1.48302
CN1CCC[C@H]1c1cccnc1 [(-)-3-(N-methylpyrrolidino)pyridine] + CC(O)CO
1.49923
CN1CCC[C@H]1c1cccnc1 [(-)-3-(N-methylpyrrolidino)pyridine] + CCC(C)O
1.48084

[ask] Which refractive index value belongs to CN1CCC[C@H]1c1cccnc1 [(-)-3-(N-methylpyrrolidino)pyridine] + OCCCO ?
[reply] 1.50314
